tested on: EfPiwi piRISC loaded with L1MC piRNA (26 nt); experiment: pre-steady-state target cleavage rate (min^-1); auxiliary factor: 500 nM Ephydatia muelleri Gtsf1; guide: L1MC piRNA 5'p-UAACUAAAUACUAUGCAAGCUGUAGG; MIWI and MILI are mouse PIWI proteins and EfPiwi is from a freshwater sponge; tags in brackets are library labels; higher = faster piRNA-guided slicing of the target
Quick rule: pre-steady-state target cleavage rate of at least 0.004 means met, below that means not met.

**Q:** Threshold query (pre-steady-state target cleavage rate >= 0.004) on UCCUGGAACAGCUUGCAUAGUAUUUAGUCA
**A:** met

**Q:** Now this one: UCCUCCUAGAGCUUGCAUAGUAUUUUCAAA
**A:** not met

**Q:** Now this one: UCCUGGUCAGCUUGCAUAGUAUUUAGUUA
**A:** met

**Q:** Now this one: UCCUGCUACAGCUUGCAUACUAUUUAGUAA
**A:** met

**Q:** Now this one: UCCUCCUUGUGCUUGCAUAGUAUUUACAAA
**A:** not met

**Q:** Now this one: UCCUCCUAGAGCUUGCAUAGUAUUAAGUUA
**A:** met

**Q:** Now this one: UCCUGCUACAGCUUGCCAUAGUAUUUAGUUA
**A:** not met
